Reported inhibition at 10 µM by item:
# measurementTarget: MRP1 (Multidrug resistance-associated protein 1) (Homo sapiens, UniProt P33527)
# Sequence (P33527 whole entry): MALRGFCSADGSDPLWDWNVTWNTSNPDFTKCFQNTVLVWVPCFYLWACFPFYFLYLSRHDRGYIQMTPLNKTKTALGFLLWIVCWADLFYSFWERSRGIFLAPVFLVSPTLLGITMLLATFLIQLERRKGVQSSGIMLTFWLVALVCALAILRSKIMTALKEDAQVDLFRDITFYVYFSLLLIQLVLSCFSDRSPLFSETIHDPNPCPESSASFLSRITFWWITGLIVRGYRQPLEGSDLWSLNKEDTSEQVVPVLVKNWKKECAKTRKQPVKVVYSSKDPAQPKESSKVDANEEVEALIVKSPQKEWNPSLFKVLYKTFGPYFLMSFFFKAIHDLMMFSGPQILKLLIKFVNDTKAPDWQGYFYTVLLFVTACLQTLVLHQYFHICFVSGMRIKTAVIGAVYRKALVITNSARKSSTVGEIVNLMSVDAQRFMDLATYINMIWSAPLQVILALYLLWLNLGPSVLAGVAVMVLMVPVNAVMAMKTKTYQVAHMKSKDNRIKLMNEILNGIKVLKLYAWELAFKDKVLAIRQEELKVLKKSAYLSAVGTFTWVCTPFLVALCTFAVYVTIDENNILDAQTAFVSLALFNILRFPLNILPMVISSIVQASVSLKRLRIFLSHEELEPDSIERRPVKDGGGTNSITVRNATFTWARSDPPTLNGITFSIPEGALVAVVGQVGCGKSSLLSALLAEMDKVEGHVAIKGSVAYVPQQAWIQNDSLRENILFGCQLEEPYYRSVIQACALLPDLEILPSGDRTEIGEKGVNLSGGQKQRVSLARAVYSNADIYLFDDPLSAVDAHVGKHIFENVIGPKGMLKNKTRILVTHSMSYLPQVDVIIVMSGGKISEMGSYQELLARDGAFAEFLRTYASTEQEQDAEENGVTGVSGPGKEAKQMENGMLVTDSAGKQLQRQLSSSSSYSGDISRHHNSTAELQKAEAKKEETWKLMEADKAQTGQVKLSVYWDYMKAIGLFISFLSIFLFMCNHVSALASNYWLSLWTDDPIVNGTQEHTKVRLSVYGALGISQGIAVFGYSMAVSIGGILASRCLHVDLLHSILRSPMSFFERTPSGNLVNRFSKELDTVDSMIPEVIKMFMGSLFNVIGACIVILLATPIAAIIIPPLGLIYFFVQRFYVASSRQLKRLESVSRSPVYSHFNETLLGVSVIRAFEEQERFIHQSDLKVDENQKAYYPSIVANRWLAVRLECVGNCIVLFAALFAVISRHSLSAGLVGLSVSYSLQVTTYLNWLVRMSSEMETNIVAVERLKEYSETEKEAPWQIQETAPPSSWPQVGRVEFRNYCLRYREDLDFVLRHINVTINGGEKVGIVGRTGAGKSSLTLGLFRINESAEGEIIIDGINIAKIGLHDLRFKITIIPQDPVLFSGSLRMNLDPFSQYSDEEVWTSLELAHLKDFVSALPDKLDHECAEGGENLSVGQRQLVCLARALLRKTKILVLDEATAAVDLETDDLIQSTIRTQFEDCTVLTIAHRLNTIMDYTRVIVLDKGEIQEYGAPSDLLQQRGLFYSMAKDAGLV
# procedureText: Inhibition of human MRP1-mediated uptake of [3H]E2-17betaG in HEK cell membrane vesicles at 10 uM by liquid scintillation counter
# Format: cell membranes, HEK293
# experimentalConditions: HEK cell membrane vesicles with human MRP1, probe [3H]E2-17betaG
parameter: inhibition at 10 µM (%)

>  <chemicalSmiles>
CN(C)c1ccc(-c2cc(-c3ccc(C(=S)N4CCCCC4)s3)cc(-c3ccc(N(C)C)cc3)[s+]2)cc1.[Cl-]

>  <parameter>
inhibition at 10 µM

>  <valueObserved>
81

$$$$
>  <chemicalSmiles>
CN(C)c1ccc(-c2cc(-c3ccc(C(=S)N4CCCCC4)s3)cc(C(C)(C)C)[s+]2)cc1.[Cl-]

>  <parameter>
inhibition at 10 µM

>  <valueObserved>
93

$$$$
>  <chemicalSmiles>
CC(C)(C)c1cc(-c2ccc(C(=S)N3CCCCC3)s2)cc(C(C)(C)C)[s+]1.[Cl-]

>  <parameter>
inhibition at 10 µM

>  <valueObserved>
32

$$$$
>  <chemicalSmiles>
CN(C)c1ccc(-c2cc(-c3ccc(C(=O)N4CCCCC4)s3)cc(C(C)(C)C)[s+]2)cc1.F[P-](F)(F)(F)(F)F

>  <parameter>
inhibition at 10 µM

>  <valueObserved>
59

$$$$
>  <chemicalSmiles>
CC(C)(C)c1cc(-c2ccc(C(=O)N3CCCCC3)s2)cc(C(C)(C)C)[s+]1.F[P-](F)(F)(F)(F)F

>  <parameter>
inhibition at 10 µM

>  <valueObserved>
11

$$$$
>  <chemicalSmiles>
CN(C)c1ccc(-c2cc(-c3ccc(C(=O)N4CCCCC4)s3)cc(-c3ccc(N(C)C)cc3)[s+]2)cc1.F[P-](F)(F)(F)(F)F

>  <parameter>
inhibition at 10 µM

>  <valueObserved>
78

$$$$

----------
# procedureText: Octanol-water partition coefficient, log P of the compound in PBS at pH 7.4 after 1 hr by shake flask method
# Format: physicochemical
Reported logD at 1 h by item:
parameter: logD at 1 h

>  <chemicalSmiles>
CN(C)c1ccc(-c2cc(-c3ccc(C(=S)N4CCCCC4)s3)cc(C(C)(C)C)[s+]2)cc1.[Cl-]

>  <valueObserved>
2.1

$$$$
>  <chemicalSmiles>
CN(C)c1ccc(-c2cc(-c3ccc(C(=S)N4CCCCC4)s3)cc(-c3ccc(N(C)C)cc3)[s+]2)cc1.[Cl-]

>  <valueObserved>
1.6

$$$$
>  <chemicalSmiles>
CC(C)(C)c1cc(-c2ccc(C(=O)N3CCCCC3)s2)cc(C(C)(C)C)[s+]1.F[P-](F)(F)(F)(F)F

>  <valueObserved>
0.2

$$$$
>  <chemicalSmiles>
CC(C)(C)c1cc(-c2ccc(C(=S)N3CCCCC3)s2)cc(C(C)(C)C)[s+]1.[Cl-]

>  <valueObserved>
0.7

$$$$
>  <chemicalSmiles>
CN(C)c1ccc(-c2cc(-c3ccc(C(=O)N4CCCCC4)s3)cc(C(C)(C)C)[s+]2)cc1.F[P-](F)(F)(F)(F)F

>  <valueObserved>
1.4

$$$$
>  <chemicalSmiles>
CN(C)c1ccc(-c2cc(-c3ccc(C(=O)N4CCCCC4)s3)cc(-c3ccc(N(C)C)cc3)[s+]2)cc1.F[P-](F)(F)(F)(F)F

>  <valueObserved>
2.1

$$$$
